log10 of TGI overview
# Test system: DMS 273 small cell lung
# Protocol Notes: NCI tumour cell line growth inhibition, 48 h
Heads up: the numbers are on a log10 scale; they represent TGI in µM.

- Compound: "COc1ccc(C2=Nc3ccccc3SC(C)C2)cc1OC (stereo not given)"
  Value Reported: 1.54
- Compound: "COc1cc2c(c(OC)c1OC)-c1ccc(SC)c(=O)cc1[C@@H](NCc1ccc([N+](=O)[O-])cc1)CC2"
  Value Reported: 0.03

Give log10 of TGI for the following compound: CN(C)CC1CCC(CN(C)C)C(=O)C1=O (stereo not given)
1.49

Using known records, supply log10 of TGI for CC1=C(C(=O)Nc2ccccc2)C(c2ccccc2Cl)C(C(=O)Nc2ccccc2)=C(C)N1
1.62

For the compound NC1c2ccccc2Nc2ccccc21 , give its reported log10 of TGI.
1.41

Specify reported log10 of TGI for the compound shown: CCC[CH2][Sn]([CH2]CCC)([S]C#N)[S]C#N
0.62

----------
# Tested on: HCT-15 colon
# Protocol Notes: NCI tumour cell line growth inhibition, 48 h
Readout Kind: TGI

- Compound: "O=C(NCCCc1cn[nH]c1)c1ccc(-c2ccncc2)c(C#Cc2ccc(F)cc2)c1"
  TGI: "> 57.9 µM"

Give me measured TGI, please, for this compound: CCOC(=O)c1cc(-c2ccc(-c3cc(C(=O)OCC)c(C#N)c(N)c3C#N)cc2)c(C#N)c(N)c1C#N
> 100 µM

State its TGI for this compound: CS(=O)(=O)Nc1cccc(-c2ccc3ncnc(Nc4ccc(F)c(Cl)c4)c3c2)c1
3.86 µM

Dear colleague, please send me the reported TGI for CCCOC(=O)c1c(C)n(C)c2scc[n+]12 when you can.
> 100 µM

For the compound Cc1cc(S(=O)(=O)/N=C(/NN)Nc2ccc(Cl)cc2)c(S)cc1Cl , give its reported TGI.
53 µM

----------
TGI values for the compounds below.
# Tested on: SR leukemia
# Protocol Notes: NCI tumour cell line growth inhibition, 48 h
Give just the number in µM; leave the unit off.

- Compound: "CCCCCCSSC(=S)N(CC)CC"
  Readout Kind: "TGI"
  Value Reported: 29.1
- Compound: "O=c1[nH]nc(Cc2ccc(Cl)cc2)n1/N=C/c1ccc([N+](=O)[O-])o1"
  Readout Kind: "TGI"
  Value Reported: 7.55
- Compound: "COc1cccc(C2c3cc4c(cc3OC(Nc3ccccc3)C2C)OCO4)c1O (configuration not stated)"
  Readout Kind: "TGI"
  Value Reported: 7.25
- Compound: "CC(C)OC(=S)Nc1ccc(Cl)c(/C=N/OC(C)(C)C)c1"
  Readout Kind: "TGI"
  Value Reported: 39.3

Please list TGI recorded for the compound O=C(NNc1ccc(Cl)cc1)C1CCC(CNS(=O)(=O)c2ccccc2Cl)CC1 (configuration not stated)
66.4

----------
# Tested on: HL-60(TB) leukemia
# Protocol Notes: NCI tumour cell line growth inhibition, 48 h
Form field: log10(TGI) (one value per entry).
The figures below represent log10 of TGI, where TGI is stated in µM.

# annotated cases, reported log10(TGI) shown
- Compound: "Cc1ccc(C)c(N2C(=O)C(=O)C(c3nc4ccccc4o3)C(=O)C2=O)c1"
  Target Or Test System: "HL-60(TB) leukemia"
  log10(TGI): 1.79
- Compound: "C#Cc1cccc(Nc2nc(Cl)nc3cc(NC(=O)CCl)ccc23)c1"
  Target Or Test System: "HL-60(TB) leukemia"
  log10(TGI): 0.86
- Compound: "Cc1cc(S(=O)(=O)/N=C(/NN)Nc2ccc(Cl)cc2)c(S)cc1Cl"
  Target Or Test System: "HL-60(TB) leukemia"
  log10(TGI): 1.80

Jot down log10(TGI) (HL-60(TB) leukemia) of CCCCCC(O)C(O)CCC[C@H](O)[C@H]1CC[C@H]([C@H]2CC[C@H]([C@H](O)CCCCCCCCCCCCC3=C[C@H](C)OC3=O)O2)O1 (stereo not given in full) .
0.63

Please indicate recorded log10(TGI) of O=C(NCCCc1cn[nH]c1)c1ccc(-c2ccncc2)c(C#Cc2ccc(F)cc2)c1 measured with HL-60(TB) leukemia.
1.16

Check HL-60(TB) leukemia data and give log10(TGI) for O=C(C(=O)n1ncc(Cl)c(Cl)c1=O)n1ncc(Cl)c(Cl)c1=O .
1.35

# return log10(TGI) of CCOC(=O)C(Cc1ccc(N(CCCl)CCCl)cc1)NC(=O)C(Cc1ccccc1)NC=O (stereo not given) (system: HL-60(TB) leukemia)
-0.55

Report log10(TGI) under test system HL-60(TB) leukemia for CSc1cnc2ccccc2c1Sc1c[nH]c2ccccc2c1=O .
1.26

Tell me log10(TGI) of CC(C)N(Cc1ccc(CN(C(=O)CCl)C(C)C)cc1)C(=O)CCl when tested on HL-60(TB) leukemia.
0.70

State log10(TGI) on HL-60(TB) leukemia. Entry: CC(=O)N1CCN(CCNC(=O)n2cc(-c3ccncc3)c(-c3cc(O)cc(Cl)c3)n2)CC1
1.46

// fetch log10(TGI); item: O=C1/C(=C/c2ccc(F)cc2)CN(C(=O)CCN2CCC(=NO)CC2)C/C1=C\c1ccc(F)cc1 ; system: HL-60(TB) leukemia
0.90

Please report the measured log10(TGI) for CCN(CC)CCCC(C)Nc1cc(-c2cccc(OC(F)(F)F)c2)nc2ccc(N3CCCC3)cc12 (stereo not given) tested on HL-60(TB) leukemia.
0.31

Provide measured log10(TGI) on HL-60(TB) leukemia for O=C(N=Nc1ccccc1Cl)NNc1ccccc1Cl please.
1.65

Jot down log10(TGI) (HL-60(TB) leukemia) of N#CC1=C(N)Oc2c(ccc3ccccc23)C1c1cc(=O)oc2ccc(Cl)cc12 (stereo not given) .
0.18

Enter log10(TGI) (test system HL-60(TB) leukemia) for CC1(C)CC[C@]2(C(=O)O)CC[C@]3(C)[C@H](C(=O)C=C4[C@@]5(C)C=C(C#N)C(=O)C(C)(C)[C@@H]5CC[C@]43C)[C@@H]2C1
1.06

Name the value of log10(TGI) reported for C=C1CC(C)(c2cccc(Nc3nc4ccccc4c4occc34)c2)OC1=O (stereo not given) when tested on HL-60(TB) leukemia.
0.73

Please report the measured log10(TGI) for COc1cc2c(c(OC)c1OC)-c1ccc(SC)c(=O)cc1[C@@H](NCc1ccc([N+](=O)[O-])cc1)CC2 tested on HL-60(TB) leukemia.
0.17

State the measured log10(TGI) (HL-60(TB) leukemia) of CS(=O)(=O)Nc1cccc(-c2ccc3ncnc(Nc4ccc(F)c(Cl)c4)c3c2)c1
1.64

// fetch log10(TGI); item: CC1=C(C(=O)Nc2ccccc2)C(c2ccccc2Cl)C(C(=O)Nc2ccccc2)=C(C)N1 ; system: HL-60(TB) leukemia
1.50

----------
# Test system: DU-145 prostate
# Protocol Notes: NCI tumour cell line growth inhibition, 48 h; in the data active means GI50 below about 0.43 µM; inactive means the rest
Thanks in advance; please answer with one of these: active, inactive

Illustrative cases are given below, each with its answer.
- Molecule: "O=C(/C=C/C=C/c1ccccc1)c1ccco1"
  Assigned Category: "inactive"
- Molecule: "COC(=O)c1c(-c2cccs2)oc(-c2cccs2)c1C(=O)OC"
  Assigned Category: "inactive"
- Molecule: "CCCc1cc(=O)n2c(C(=O)Nc3ccc(F)cc3)c(C(=O)Nc3ccc(F)cc3)sc2n1"
  Assigned Category: "inactive"

Identify the outcome logged in this assay for the molecule shown: COc1ccc(-c2cncn2-c2cc(OC)c(OC)c(OC)c2)cc1
active

Given CN(C)CCCn1c(=O)c2ccccc2c2cnc3[nH]ccc3c21 , state the outcome it received in this test.
inactive

Recorded test outcome, item Cn1cc(C2=C(c3c[nH]c4ccccc34)C(=O)NC2=O)c2ccccc21
inactive

How was CN=C1C=CC(=C(c2ccc(N(C)C)cc2)c2ccc(N(C)C)cc2)C=C1 classified in this test?
active

Outcome? C=C1C(O)C2CC(C)(CO)C(=O)C2=C(CC(C)C)C12CC2 (stereo not given)
inactive

Check the results log: what was the call for COc1ccc(-c2ccc(/C=N/n3c(COc4ccccc4Cl)nn(CN4CCOCC4)c3=S)o2)c([N+](=O)[O-])c1 ?
inactive

Would you mind telling me which call this test gave Cc1ccc(-c2nc(/C=N/Nc3cc(C)nc4ccc(Cl)cc34)c(C)o2)cc1 ?
inactive

----------
# Tested on: NCI-H23 lung
# Protocol Notes: NCI tumour cell line growth inhibition, 48 h; in the data active = GI50 below about 0.43 µM; inactive = the rest
Pick from True for active, False for inactive when you respond.

- Chem Smiles: "COc1ccc(-c2nc(-c3nc4ccc(C)cc4[nH]3)cc3c2[nH]c2ccccc23)cc1"
  Assigned Category: "False"
- Chem Smiles: "[N-]=[N+]=NCCCn1c2c(c3ccc([N+](=O)[O-])cc3c1=O)C(=O)c1cc(Br)ccc1-2"
  Assigned Category: "False"

Called result for O=C(CN(/C=C/C(=O)C(F)(F)F)c1ccc(Cl)cc1)c1ccc(Cl)c(Cl)c1
False

// return assay outcome for O=C(NCC(F)(F)F)Nc1cccc(-c2cnc3cc(-c4ccc(F)cc4)ccn23)c1
False

Called result for COc1ccc(C(=O)c2cc(C)c(OC)c(C)c2)c(OC)c1NC(C)=O
True
